molecular target: hERG (KCNH2) (Homo sapiens, UniProt Q12809); assay: Inhibition of human ERG at 11 uM by IonWorks patch-clamp electrophysiology method relative to control
Sequence (Q12809 whole entry): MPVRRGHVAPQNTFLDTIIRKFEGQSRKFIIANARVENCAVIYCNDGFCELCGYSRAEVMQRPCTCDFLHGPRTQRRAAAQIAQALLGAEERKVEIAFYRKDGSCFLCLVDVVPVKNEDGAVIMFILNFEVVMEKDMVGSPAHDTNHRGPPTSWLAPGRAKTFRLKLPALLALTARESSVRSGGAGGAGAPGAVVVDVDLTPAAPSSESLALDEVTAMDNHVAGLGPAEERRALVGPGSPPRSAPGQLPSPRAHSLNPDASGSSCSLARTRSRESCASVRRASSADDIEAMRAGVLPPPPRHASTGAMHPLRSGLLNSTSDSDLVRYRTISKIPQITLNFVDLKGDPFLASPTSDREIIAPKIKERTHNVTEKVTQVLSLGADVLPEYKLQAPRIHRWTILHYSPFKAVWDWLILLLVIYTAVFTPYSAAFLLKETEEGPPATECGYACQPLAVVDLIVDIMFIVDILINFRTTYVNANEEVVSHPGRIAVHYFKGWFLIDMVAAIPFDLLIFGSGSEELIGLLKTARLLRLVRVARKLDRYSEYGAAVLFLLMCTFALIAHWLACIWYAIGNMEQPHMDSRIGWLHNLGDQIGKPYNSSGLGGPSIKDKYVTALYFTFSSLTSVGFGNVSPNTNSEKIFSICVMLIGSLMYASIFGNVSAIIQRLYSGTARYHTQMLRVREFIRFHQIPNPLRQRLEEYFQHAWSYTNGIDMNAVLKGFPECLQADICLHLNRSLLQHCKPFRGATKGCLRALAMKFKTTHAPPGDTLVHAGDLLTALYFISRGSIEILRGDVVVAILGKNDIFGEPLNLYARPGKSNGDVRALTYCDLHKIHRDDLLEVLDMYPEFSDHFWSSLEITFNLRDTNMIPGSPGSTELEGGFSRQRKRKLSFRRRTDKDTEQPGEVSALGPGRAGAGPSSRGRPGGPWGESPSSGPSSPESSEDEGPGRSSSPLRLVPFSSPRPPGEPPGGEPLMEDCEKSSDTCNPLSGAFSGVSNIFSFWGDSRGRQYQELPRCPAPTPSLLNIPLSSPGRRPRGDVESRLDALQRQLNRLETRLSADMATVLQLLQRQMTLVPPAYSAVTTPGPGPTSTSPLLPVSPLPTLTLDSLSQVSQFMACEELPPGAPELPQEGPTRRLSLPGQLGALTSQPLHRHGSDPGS
Result type: inhibition at 11 µM
Quote the value and follow it with the unit of measurement.

Exam item: Hello, I am looking for reported inhibition at 11 µM with hERG (KCNH2) (Homo sapiens, UniProt Q12809) for `O=C(NCCN1CCCC1)c1cc(NCCCN2CCOCC2)nc2ccc(F)cc12` . Could you help?
Marked response: 16%

###

assay: Clearance in NMRI mouse blood at 3 mg/kg, iv administered as bolus dose by UPLC-MS/MS analysis; assay type: ADME, organism-based
Result type: clearance (mL/min/kg)
Quick note: give the figure in mL/min/kg, leave out the unit.

For orientation, consider the following solved cases.
O=C(NCCN1CCCC1)c1cc(NCCCN2CCOCC2)nc2ccc(F)cc12 :: 14
O=C(NCCN1CCCC1)c1cc(NCCCCN2CCOCC2)nc2ccc(Cl)cc12 :: 4

Here's the next entry for you.
Exam item: Item `O=C(NCCN1CCCC1)c1cc(NCCC2CCOCC2)nc2ccc(Cl)cc12` has what recorded clearance?
Marked response: 34
